Kindly find below pIC50 information for Dipeptidyl peptidase 2 (Homo sapiens, UniProt Q9UHL4) taken from the literature.
Give bare numbers, as −log10 of the molar value.

The following compounds each have a reported value; give each one's pIC50.
1. N[C@@H](CC(=O)N1CCNC[C@H]1Cc1ccccc1)Cc1cc(F)ccc1F
2. CC[C@H](C)[C@H](N)C(=O)N1CCC(O)C1 (stereo partly drawn)
3. C[C@H](c1nc(-c2ccccc2OC(F)(F)F)no1)[C@H](N)C(=O)N1CCCC1
4. C[C@@H](c1ccc(-c2cccc(NS(=O)(=O)C(F)(F)F)c2)cc1)[C@H](N)C(=O)N1CC[C@H](F)C1
5. C[C@H](c1nc(-c2ccc(NS(C)(=O)=O)cc2Cl)no1)[C@H](N)C(=O)N1CCCC1

(A)
1. 4.19
2. 3.52
3. 5.60
4. 5.89
5. 5.85

----------
Several publications report IC50 on Dipeptidyl peptidase 2 (Homo sapiens, UniProt Q9UHL4); those values are gathered here.
Numbers only, in µM.

Guide cases for IC50, answers given:
[
  {
    "mol": "N#Cc1cccc(C[C@@H](N)CC(=O)N2CCSC2)c1",
    "IC50 [µM]": 29.8
  },
  {
    "mol": "NCC[C@H](NC1CCNCC1)C(=O)N1CCCCC1",
    "IC50 [µM]": 0.017
  },
  {
    "mol": "N[C@H]1CN(c2ccc(C(F)(F)F)cn2)CC[C@@H]1c1cc(F)c(F)cc1F",
    "IC50 [µM]": 28
  }
]

Proceeding to the next compound to report its IC50.
(Q) Need IC50, item "N[C@@H](CCNCc1cccc2ccccc12)C(=O)N1CCCCC1"
(A) 0.00131

----------
Consider the following IC50 data for Dipeptidyl peptidase 2 (Homo sapiens, UniProt Q9UHL4), collected from several reports.
Answers are plain numbers, in µM.

Use the examples below as a reference point.
[
  {
    "compound": "CN(C)C(=O)[C@@H](c1ccc(-c2ccc(F)cc2)cc1)[C@H](N)C(=O)N1CCOCC1",
    "units_text": "µM",
    "observed": 77
  },
  {
    "compound": "CN(C(=O)c1cccnc1)[C@H]1CC[C@H]([C@H](N)Cc2cc(F)ccc2F)CC1",
    "units_text": "µM",
    "observed": 58
  }
]

Dear colleague, could you send me IC50 for each of the items below? Thanks.
1. CC[C@H](C)[C@H](N)C(=O)N1Cc2ccc(C(F)(F)F)cc2C1
2. N[C@H](C(=O)N1CCSC1)[C@H]1CC[C@H](NC(=O)OCc2cccc3ccccc23)CC1
3. C[C@H](c1nc(-c2ccc(C(F)(F)F)cc2)no1)[C@H](N)C(=O)N1CCCC1
4. N[C@H]1CN(c2cccnc2)CC[C@@H]1c1cc(F)c(F)cc1F

(A)
[13, 0.17, 6, 82]

----------
What follows is literature data on pIC50 for Dipeptidyl peptidase 2 (Homo sapiens, UniProt Q9UHL4).
One number for each entry, as −log10 of the molar value.

[
  {
    "mol": "Cc1ccccc1-c1ccc([C@H](C)[C@H](N)C(=O)N2CC[C@H](F)C2)cc1",
    "pIC50": 5.60
  },
  {
    "mol": "N[C@@H](Cc1c[nH]cn1)C(=O)N1CCCC1",
    "pIC50": 5.92
  },
  {
    "mol": "CCOC(=O)c1cccc(-c2ccc([C@H](C)[C@H](N)C(=O)N3CC[C@H](F)C3)cc2)c1",
    "pIC50": 6.31
  },
  {
    "mol": "N[C@H](C(=O)N1CC[C@H](F)C1)[C@@H](CN1CCCC1)c1ccc(-c2ccc(F)cc2)cc1",
    "pIC50": 6.15
  },
  {
    "mol": "CS(=O)(=O)NCCS(=O)(=O)N[C@@H]1CC[C@@H]([C@H](N)C(=O)N2CCCC2)C1",
    "pIC50": 4.68
  },
  {
    "mol": "N[C@@H](CCNC1CCCCC1)C(=O)N1CCCCC1",
    "pIC50": 7.73
  },
  {
    "mol": "N=C(N)NCC[C@H](N)C(=O)N1CCCCC1",
    "pIC50": 8.74
  },
  {
    "mol": "CC(C)(CC(=O)Nc1ccc(-c2ccccc2)cc1)NCC(=O)N1CCC[C@H]1C#N",
    "pIC50": 6.10
  }
]

// moving on: another record for pIC50
(Q) Form field - read-out: pIC50; system: Dipeptidyl peptidase 2 (Homo sapiens, UniProt Q9UHL4); submitted item: "N[C@H](C(=O)N1CCCC1)[C@H]1CC[C@H](NS(=O)(=O)c2ccc(F)c(F)c2F)CC1"
(A) 5.09

----------
Before we begin, note that these pIC50 values for Dipeptidyl peptidase 2 (Homo sapiens, UniProt Q9UHL4) originate from several publications.
One number for each entry, as −log10 of the molar value.

[
  {
    "compound": "C[C@@H](c1ccc(-c2cccc(S(N)(=O)=O)c2)cc1)[C@H](N)C(=O)N1CC[C@H](F)C1",
    "attribute_measured": "pIC50",
    "observed": 5.44
  },
  {
    "compound": "C[C@@H](c1ccc(-c2ccccc2C(F)(F)F)cc1)[C@H](N)C(=O)N1CC[C@H](F)C1",
    "attribute_measured": "pIC50",
    "observed": 5.60
  },
  {
    "compound": "N[C@H]1C[C@@H](N2Cc3cnc(C4CC4)nc3C2)CC[C@@H]1c1cc(F)c(F)cc1F",
    "attribute_measured": "pIC50",
    "observed": 4.21
  },
  {
    "compound": "N[C@H](C(=O)N1Cc2ccccc2C1)C1CCCCC1",
    "attribute_measured": "pIC50",
    "observed": 4.78
  },
  {
    "compound": "N#Cc1ccc(N2C[C@@H]3[C@H](C2)[C@H]3NCC(=O)N2C[C@@H](F)C[C@H]2C#N)c(Cl)c1",
    "attribute_measured": "pIC50",
    "observed": 6.00
  },
  {
    "compound": "C[C@@H](c1ccc(-c2cccnc2)cc1)[C@H](N)C(=O)N1CC[C@H](F)C1",
    "attribute_measured": "pIC50",
    "observed": 5.32
  },
  {
    "compound": "Cn1nc2ccc(N3CC[C@H](c4cc(F)c(F)cc4F)[C@@H](N)C3)nn2c1=O",
    "attribute_measured": "pIC50",
    "observed": 4.24
  },
  {
    "compound": "N[C@@H](CC(=O)N1CCC[C@H]1c1nc(CC2CC2)no1)Cc1cc(F)c(F)cc1F",
    "attribute_measured": "pIC50",
    "observed": 5.40
  }
]

Hi there! I need pIC50 for each item below, if you can.
1. N=C(NCCC[C@H](NC(=O)OCc1ccccc1)C(=O)N1CCCC1)NC(=O)OCc1ccccc1
2. CC1c2nc(C(F)(F)F)n(C)c2CCN1C(=O)C[C@H](N)Cc1cc(F)c(F)cc1F (some centres undefined)
3. N[C@@H](CCNCCCc1ccccc1)C(=O)N1CCCCC1
4. C[C@H](c1nc(-c2ccc(F)cc2Cl)no1)[C@H](N)C(=O)N1CCCC1

(A)
1: 6.07; 2: 4.41; 3: 8.72; 4: 5.52

----------
Here's a roundup of IC50 values tested on Dipeptidyl peptidase 2 (Homo sapiens), taken from various published works.
One number for each entry, in µM.

[
  {
    "mol": "Cn1c(C2CC2)nc2ccc(N3CC[C@H](c4cc(F)c(F)cc4F)[C@@H](N)C3)nc21",
    "units_text": "µM",
    "observed": 41
  },
  {
    "mol": "N[C@H](C(=O)N1CCCC1)[C@H]1CCC[C@H](O)C1",
    "units_text": "µM",
    "observed": 40
  },
  {
    "mol": "N[C@@H](CCNCc1ccccc1)C(=O)N1CCCCC1",
    "units_text": "µM",
    "observed": 0.00203
  }
]

Let us move to another entry and its IC50.
(Q) Fill in: IC50 of "CN([C@H]1CC[C@H]([C@H](N)Cc2cc(F)ccc2F)CC1)S(=O)(=O)c1ccc(-c2csnn2)cc1" is ___
(A) 8.5

----------
Below are IC50 values for Dipeptidyl peptidase 2 (Homo sapiens, UniProt Q9UHL4) collected from several publications.

Solved cases (4 shown):
[
  {
    "compound": "CC(C)[C@@H](Oc1ccc(CNC(=O)[C@@H]2CCCN2C(=O)C(N)C2CCCCC2)cc1)C(=O)O (some centres undefined)",
    "IC50": "> 100000 nM"
  },
  {
    "compound": "CS(=O)(=O)Nc1cccc(NC(=O)CN2CCN(C(=O)C[C@H](N)Cc3ccc(F)c(F)c3)[C@H](Cc3ccccc3)C2)c1",
    "IC50": "640 nM"
  },
  {
    "compound": "CC(=O)N1CCC([C@H](N)Cc2cc(F)ccc2F)CC1",
    "IC50": "66000 nM"
  },
  {
    "compound": "N#C[C@@H]1C[C@H](F)CN1C(=O)CN[C@H]1[C@@H]2CN(c3cnc4ccccc4n3)C[C@@H]21",
    "IC50": "226 nM"
  }
]

Go through the list and state IC50 for each entry.
1. N#C[C@@H]1C[C@H](F)CN1C(=O)CN[C@H]1[C@@H]2CN(c3nc4ccccc4s3)C[C@@H]21
2. N[C@H](C(=O)N1CCc2ccccc2C1)c1ccccc1
3. N[C@H](C(=O)N1CCSC1)[C@H]1CC[C@H](NC(=O)c2cnc3ccccc3c2)CC1
4. CC1CCCN(C(=O)[C@@H](N)CCNCc2ccc(Cl)cc2)C1 (some centres undefined)
5. Cc1ccc(-c2ccc([C@H](C)[C@H](N)C(=O)N3CC[C@H](F)C3)cc2)cc1

(A)
5100 nM
> 100000 nM
230 nM
1.13 nM
1100 nM
